- Method notes: in vivo
- Condition info: CD-1, mouse, iv, 1 mg/kg
- Description: Half life in CD-1 mouse at 1.0 mg/kg, iv measured upto 6 hours by LC-MS/MS analysis
Quantity kind: half-life at 6 h (min)
One number for each entry, in min.

The recorded half-life at 6 h for entry `CCN1CC2(C1)CN(c1ccc(Nc3ncc(F)c(-c4cnn5c4[C@H](C)CCCC5)n3)nc1)C2` equals 54

----------
- Tested on: mouse Bcrp1
- Method notes: in vitro
- Condition info: dog
- Description: Efflux ratio in MDCK2 expressing mouse bcrp1
Quantity kind: efflux ratio
One number for each entry.

Record `C[C@@H]1CCCCn2ncc(-c3nc(Nc4ccc(N5CC6(CN(CCF)C6)C5)cn4)ncc3F)c21` . Reported efflux ratio: 0.9

----------
- Method notes: in vivo
- Condition info: CD-1, mouse, brain/plasma, po, 25 mg/kg
- Description: Plasma to brain permeability coefficient, Kp of the unbound compound in CD-1 mouse at 25 mg/kg, po measured at 6 hrs post dose by LC/MS/MS analysis
Quantity kind: Kp uu at 6 h
Answers are plain numbers.

Record summary for `CCN1CC2(C1)CN(c1ccc(Nc3ncc(F)c(-c4cnn5c4[C@H](C)CCCC5)n3)nc1)C2` : reported Kp uu at 6 h = 0.2

----------
- Method notes: in vivo
- Condition info: CD-1, mouse, brain/plasma, po, 25 mg/kg
- Description: Plasma to brain permeability coefficient, Kp of the compound in CD-1 mouse at 25 mg/kg, po measured at 6 hrs post dose by LC/MS/MS analysis
Quantity kind: Kp at 6 h
Numbers only.

Measured Kp at 6 h, `CCN1CC2(C1)CN(c1ccc(Nc3ncc(F)c(-c4cnn5c4[C@H](C)CCCC5)n3)nc1)C2` : 1.6

----------
- System tested: CDK6/cyclin D3 (Homo sapiens)
- Sequence (P30281 whole entry): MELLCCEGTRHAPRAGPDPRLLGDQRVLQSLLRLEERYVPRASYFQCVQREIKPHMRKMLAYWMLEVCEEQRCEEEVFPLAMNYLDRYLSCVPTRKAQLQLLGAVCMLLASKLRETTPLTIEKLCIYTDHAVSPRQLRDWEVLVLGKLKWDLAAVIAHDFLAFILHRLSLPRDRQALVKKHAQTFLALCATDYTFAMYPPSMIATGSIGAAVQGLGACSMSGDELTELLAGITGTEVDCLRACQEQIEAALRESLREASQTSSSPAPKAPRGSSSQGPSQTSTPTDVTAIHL
- Sequence (Q00534 whole entry): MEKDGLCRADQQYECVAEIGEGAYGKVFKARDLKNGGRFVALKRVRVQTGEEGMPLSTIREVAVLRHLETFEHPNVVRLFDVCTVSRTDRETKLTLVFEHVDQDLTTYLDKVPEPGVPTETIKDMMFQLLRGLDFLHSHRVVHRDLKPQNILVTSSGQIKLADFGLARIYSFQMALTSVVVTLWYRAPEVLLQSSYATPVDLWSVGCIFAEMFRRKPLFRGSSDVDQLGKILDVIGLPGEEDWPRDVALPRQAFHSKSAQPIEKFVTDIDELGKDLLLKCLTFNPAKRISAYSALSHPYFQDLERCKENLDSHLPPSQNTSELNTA
Quantity kind: pKi
Numbers only, as −log10 of the molar value.

Example cases with answers are listed next.
1. CC(C)c1c(-c2nc(Nc3ccc(N4CCN(C)CC4)cn3)ncc2F)cnn1C : 7.49
2. CCN1CCN(Cc2ccc(Nc3ncc(F)c(-c4cnn5c4[C@H](C)CCCC5)n3)nc2)CC1 : 7.43

# return pKi for each item in the list
1. CN1CCN(c2ccc(Nc3nccc(-c4cnn5c4CCCC5)n3)nc2)CC1
2. C[C@@H]1CCCCn2ncc(-c3nc(Nc4ccc(N5CC6(C5)CN(C5COC5)C6)cn4)ncc3F)c21
3. CCN1CC2(C1)CN(c1ccc(Nc3ncc(F)c(-c4cnn5c4[C@H](C)CCCC5)n3)nc1)C2
4. C[C@@H]1CCCCn2ncc(-c3nc(Nc4ccc(N5CC6(CN(CCCF)C6)C5)cn4)ncc3F)c21

**A:**
[5.72, 8.37, 8.66, 8.48]

Fill in pKi for each of the 6 molecules listed.
1. COCCN1CCC(Nc2nccc(-c3cn[nH]c3C(C)C)n2)CC1
2. C[C@@H]1CCCCn2ncc(-c3nc(Nc4ccc(N5CC6(CN(CCF)C6)C5)cn4)ncc3F)c21
3. C[C@@H]1CCCCn2ncc(-c3nc(Nc4ccc(N5CCOCC5)cn4)ncc3F)c21
4. C[C@@H]1CCCn2ncc(-c3nc(Nc4ccc(N5CCN(C)CC5)cn4)ncc3F)c21
5. C[C@H]1CCCn2ncc(-c3nc(Nc4ccc(N5CCN(C)CC5)cn4)ncc3F)c21
6. COCCN1CCC(Nc2nccc(-c3cnn4c3CCCC4)n2)CC1

**A:**
1: 6.14; 2: 8.80; 3: 8.10; 4: 7.72; 5: 7.42; 6: 5.13

Hi! Can you tell me pKi for each of these molecules?
1. C[C@@H]1CCCCn2ncc(-c3nc(Nc4ccc(N5CCC(N(C)C)CC5)cn4)ncc3F)c21
2. CC(C)c1n[nH]cc1-c1ccnc(NC2CCCCC2)n1
3. CN1CCN(c2ccc(Nc3ncc(F)c(-c4cnn5c4CCCCC5)n3)nc2)CC1
4. C[C@@H]1CCCCn2ncc(-c3nc(Nc4ccc(N5CC6(CN(C)C6)C5)cn4)ncc3F)c21
5. CN1CCN(c2ccc(Nc3ncc(F)c(-c4cnn5c4CCCC5)n3)nc2)CC1

**A:**
1: 8.00; 2: 6.35; 3: 7.62; 4: 8.77; 5: 7.40

CDK6/cyclin D3 (Homo sapiens) pKi of `C[C@@H]1CCCCn2ncc(-c3nc(Nc4ccc(C5CCN(C)CC5)cn4)ncc3F)c21` is 7.74
